Listed here: items and their measured apparent KD of MS2 coat protein.
Test system: MS2 coat protein
Assay: apparent KD of MS2 coat protein; designed switch direction (-1 OFF switch, 1 ON switch): 1; higher = weaker reporter binding
Conditions: input ligand: microRNA oligo, concentration not stated
Reply with a number, then the unit it belongs to.

Here is how some sequences turned out for apparent KD of MS2 coat protein.
>  <polymer sequence>
GCUCGAUGAGCGGUUUACAUGAGGAUCACCCAUGUACAUGGGCAGGAUAUUUACGUGCUUUGUGUAGAGAAGGGCCCAUCGAGC [SameState NG3 #74] (Eterna round: R96, puzzle: Same State NG 3)

>  <test readout>
apparent KD of MS2 coat protein

>  <reading>
280 nM

$$$$
>  <polymer sequence>
UGUUGUAUUACAGGAUAUCUAUUAGCUUUAUUUAGAGAAGGGUAUUCACAUGAGGAUCACCCAUGUAUAUACGAGGAAGUUGUG [JMF's solution 88] (Eterna round: R96, puzzle: Same State NG 1)

>  <test readout>
apparent KD of MS2 coat protein

>  <reading>
33.6 nM

$$$$
>  <polymer sequence>
GAGUAGUACGGAGGAUAUGGGCAGAACAAGACACCAGAAGGCCGACAUGAGGAUGCUGGACAUGAGGAUCACCCAUGUACCUGA [Same State 1 S3] (Eterna round: R96, puzzle: Same State NG 1)

>  <test readout>
apparent KD of MS2 coat protein

>  <reading>
92.6 nM

$$$$
>  <polymer sequence>
GGAGCCGGCACCGAGGAUAUUCAUAUUAAAACAUGAGGAUCACCCAUGUACCGCAGAAGCGGUUGGGAGAAGGCGGAUCGGCUCG [Xeonanis - 23] (Eterna round: R96, puzzle: Same State 2)

>  <test readout>
apparent KD of MS2 coat protein

>  <reading>
311 nM

$$$$

Turning now to a further sequence:
q: // query apparent KD of MS2 coat protein value for entry AUAAACAGGCUAGGAUAUCCGGAAACUACAGGACACGACCCUGUGGACAUGAGGAUCACCCAUGUGGAGAAGGAGCCACAUGAA [Onvete] (Eterna round: R96, puzzle: Same State NG 2)
a: 223 nM

----------
System: MS2 coat protein
Test: apparent KD of MS2 coat protein; designed switch direction (-1 OFF switch, 1 ON switch): 1; higher = weaker reporter binding
Details: input ligand: FMN 200 uM
Listed here: items and their measured apparent KD of MS2 coat protein.
Answer format: numeric, nM implied, no suffix.

Here is how some sequences turned out for apparent KD of MS2 coat protein.
>  <polymer sequence>
GAGAGAUGAUUAGGAUAUCCGGUGAUAAUGAUAGGAGAAGGAAUUGACAUGAGGAUCACCCAUGUGGGAAUAAUCCAGAGAGAG [Parity 23 - Jieux - Same State NG 1] (Eterna round: R96, puzzle: Same State NG 1)

>  <target system>
MS2 coat protein

>  <reading>
128

$$$$
>  <polymer sequence>
AUUAUACAUGAGGAUCACCCAUGUCAACAAAGUCGAGGAUAUGGGCAAAUAAAAUAAGAACCAGAAGGCGAAUAAU [salish99_ss1_r3_069] (Eterna round: R96, puzzle: Same State 1)

>  <target system>
MS2 coat protein

>  <reading>
69.2

$$$$
>  <polymer sequence>
GGUAAGAAUUAAGGAUAUUGAAUACAUAUGUUUAACAUGAGGAUCACCCAUGUGGGUUGCGGUGUCGAGAAGGUAAAUUACUAG [Mat - same State NG 2 - JL mod - D99] (Eterna round: R96, puzzle: Same State NG 2)

>  <target system>
MS2 coat protein

>  <reading>
281

$$$$
>  <polymer sequence>
GAUUAACAUGAGGAUCACCCAUGUCGUUAUAUGGGAGGAUAUACGUGGACCGUAGUCCGCGUAGAAGGCCUAAUUG [Mat - Same State 1 - Mod of JL - D23] (Eterna round: R96, puzzle: Same State 1)

>  <target system>
MS2 coat protein

>  <reading>
67.3

$$$$
>  <polymer sequence>
GGACGUCAACUCACUAAUUAACAUGAGGAUCACCCAUGUUCACAGGAUAUGAGUCCGAUUAGGACUCAGAAGGGUGAGACGUCC [Fiskers NG3ss - 48] (Eterna round: R96, puzzle: Same State NG 3)

>  <target system>
MS2 coat protein

>  <reading>
20.3

$$$$
>  <polymer sequence>
CCGUAGAUGGAAGGAUAUGGAGCCUUAUUGGCUCCAGAAGGUUCAAUAACAUGAGGAUCACCCAUGUCGGCGGUCAAUAGACCG [Eli NG1ss - 80] (Eterna round: R96, puzzle: Same State NG 1)

>  <target system>
MS2 coat protein

>  <reading>
20.5

$$$$
>  <polymer sequence>
GCGGAACGGGCCGACAUGAGGAUCACCCAUGUGGCCUCAUGUAAGGAUAUCGGGAAGAAGAAAACCGAGAAGGUACGGUGACGC [AK SSNG3-V2-31] (Eterna round: R96, puzzle: Same State NG 3)

>  <target system>
MS2 coat protein

>  <reading>
47.2

$$$$
>  <polymer sequence>
UUCCCAUCGGGAGGAUAUGGAACCUUAUUGGUUCUAGAAGGUCCAACAUGAGGAUCACCCAUGUGGGAGUGGUCUAAUGACCUC [SS NG10LRO03] (Eterna round: R96, puzzle: Same State NG 1)

>  <target system>
MS2 coat protein

>  <reading>
264

$$$$

q: // query apparent KD of MS2 coat protein value for entry ACUCAGUACAAUUUAGAUCUACAUGAGGAUCACCCAUGUACUGAGGAUAUCAGCUCGAAUAGAGCUGAGAAGGCAGUUGUACUA [SSNG3/10-A1] (Eterna round: R96, puzzle: Same State NG 3)
a: 102

----------
System: MS2 coat protein
Assay: apparent KD of MS2 coat protein; designed switch direction (-1 OFF switch, 1 ON switch): -1; higher = weaker reporter binding
Conditions: input ligand: microRNA oligo, concentration not stated
Listed here: items and their measured apparent KD of MS2 coat protein.
Answer format: numeric, nM implied, no suffix.

Here is how some sequences turned out for apparent KD of MS2 coat protein.
>  <polymer sequence>
ACAUGAGGAUCACCCAUGUAAGGUUGGUUUUCUCCGGCUGUUGAGGAUAUAGUCCGGUAUCCGCGCUAGAAGGUGAGGGUUGGC [Aenatbe mod 10] (Eterna round: R96, puzzle: Exclusion NG 3)

>  <unit string>
nM

>  <apparent KD of MS2 coat protein>
71.2

$$$$
>  <polymer sequence>
CCAGACGUUGUAGGAUAUCUGAAAGGAAGUGUAAGAGAAGGAUAGUGUCUGUAAAACAUGAGGAUCACCCAUGUGGGCGCAUCC [PowerStrip EXNG 1.30] (Eterna round: R96, puzzle: Exclusion NG 1)

>  <unit string>
nM

>  <apparent KD of MS2 coat protein>
16.7

$$$$
>  <polymer sequence>
UAAUAAAGUGUGAGGAUAUGCUGGUCGAUAGAUCAGCAGAAGGCACAUGAGGAUCACCCAUGUAAUAUAUUUUA [Mat - Exclusion 4 - JL Mod - D46] (Eterna round: R96, puzzle: Brourd's mod of Exclusion 4)

>  <unit string>
nM

>  <apparent KD of MS2 coat protein>
40.6

$$$$

Turning now to a further sequence:
q: // query apparent KD of MS2 coat protein value for entry CUUGUUUAUGUAGGAUAUGCCUGGCGUGCCUUUGCAGAAGGACAUGAGGAUCACCCAUGUAACAUGAGGCUCACCCUUGUCGCC [salish99_ExNG1_r04_116] (Eterna round: R96, puzzle: Exclusion NG 1)
a: 90.1

----------
Tested on: MS2 coat protein
Assay: apparent KD of MS2 coat protein; designed switch direction (-1 OFF switch, 1 ON switch): 1; higher = weaker reporter binding
Details: input ligand: FMN 200 uM
Each entry gets false if its apparent KD of MS2 coat protein stays under 50 nM, and true if its apparent KD of MS2 coat protein is 50 nM or above.

>  <polymer sequence>
GGUGCCAAUAAAGCCUACAUGAGGAUCACCCAUGUAUGUAGGCAGGAUAUCGUUUGCAAAGCAAACGAGAAGGGCCGAGGCACC [Mat - Same State NG 3 - JL Mod - D55] (Eterna round: R96, puzzle: Same State NG 3)

>  <target system>
MS2 coat protein

>  <assigned class>
false

$$$$

q: Reported apparent KD of MS2 coat protein at or above 50 nM? AGUCCAGCCUGAGCUGGACAAAAGCAUGUACAUGAGGAUCACCCAUGUCAUGUACAAGCUUUUUGCUCGAAAUAAUA [Mat - hsa-mir-208a - Mod of JL - D32] (Eterna round: R96, puzzle: Sensor for hsa-mir-208a)
a: true

q: Reported apparent KD of MS2 coat protein at or above 50 nM? GCGGAACCUAACAUGAGGAUCACCCAUGUUCCGGAAACGGCACAGGAUAUCUGUCCGAAAAGGUCAGAGAAGGGUGAAAACCGC [Fiskers NG3ss - 95] (Eterna round: R96, puzzle: Same State NG 3)
a: true

q: Reported apparent KD of MS2 coat protein at or above 50 nM? AUUUUUAAUGCAGGAUAUGAUUAACAUGAGGAUCACCCAUGUGGUGUUGUGAGUAAGGAGAGUGAUCAGAAGGGCAGUUUUUUU [JMF's solution 79] (Eterna round: R96, puzzle: Same State NG 2)
a: true

q: Reported apparent KD of MS2 coat protein at or above 50 nM? AUAAACAGGCUAGGAUAUCCGGAAACUACAGGACACGACCCUGUGGACAUGAGGAUCACCCAUGUGGAGAAGGAGCCACAUGAA [Onvete] (Eterna round: R96, puzzle: Same State NG 2)
a: false

q: Reported apparent KD of MS2 coat protein at or above 50 nM? ACUUAGUACAAUUUAGAUCUACAUGAGGAUCACCCAUGUACUGAGGAUAUCAGCUCGUUUAGAGCUGAGAAGGCAGAAGUACUU [SSNG3/8-A3] (Eterna round: R96, puzzle: Same State NG 3)
a: true

q: Reported apparent KD of MS2 coat protein at or above 50 nM? GUGGUCAGACAUGAGGAUCACCCAUGUGGAAUAAAUAAGGGUCAGGAUAUGGAAUAUAGGAUAUACCAGAAGGGAUGGUUGGUG (Eterna round: R96, puzzle: Same State NG 3)
a: true

q: Reported apparent KD of MS2 coat protein at or above 50 nM? AGAUGUUAAUCAGGAUAUGGGCCCGUGAGGAUCACCCACGGAAAGUAGGUCCAACAGGGCCCAGUCUAGAAGGGAUGGCUAACA [malcolm 80 ssNG2 F5+F7.2] (Eterna round: R96, puzzle: Same State NG 2)
a: true

q: Reported apparent KD of MS2 coat protein at or above 50 nM? ACUUAGUACAAUUUAGAUCUACAUGAGGAUCACCCAUGUACUGAGGAUAUCAGCUCGAAUAGAGCUGAGAAGGCAGUAGUACUA [SSNG3/9-A1] (Eterna round: R96, puzzle: Same State NG 3)
a: false
